I'd appreciate it if you could supply EC50 values for the items below.
system_name: huFXII-his (human) (UniProt P00748)
Sequence (P00748 20-615, form in doubt): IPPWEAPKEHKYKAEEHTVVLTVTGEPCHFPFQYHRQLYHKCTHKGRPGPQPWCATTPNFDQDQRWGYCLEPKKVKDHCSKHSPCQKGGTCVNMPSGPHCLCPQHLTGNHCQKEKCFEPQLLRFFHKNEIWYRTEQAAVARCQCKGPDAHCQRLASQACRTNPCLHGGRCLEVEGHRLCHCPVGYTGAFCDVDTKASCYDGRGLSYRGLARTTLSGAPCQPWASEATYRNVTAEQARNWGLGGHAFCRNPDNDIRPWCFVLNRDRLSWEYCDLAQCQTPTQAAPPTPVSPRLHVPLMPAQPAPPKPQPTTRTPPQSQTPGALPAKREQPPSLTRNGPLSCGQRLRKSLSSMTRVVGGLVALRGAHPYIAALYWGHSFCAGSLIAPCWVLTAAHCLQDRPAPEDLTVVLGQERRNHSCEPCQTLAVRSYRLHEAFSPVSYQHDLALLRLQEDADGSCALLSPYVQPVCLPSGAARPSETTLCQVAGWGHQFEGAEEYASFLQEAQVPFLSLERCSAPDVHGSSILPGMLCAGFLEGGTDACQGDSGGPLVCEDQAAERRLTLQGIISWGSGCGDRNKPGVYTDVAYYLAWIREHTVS
protocol: ELISA, huFXII-his coated at 1 µg/ml, HRP anti-human secondary, OD450
One number for each entry, in µg/mL.

EC50 reported for this binder FX-Y17-Y46 (antibody, V domains shown) VH: EVQLLESGGGLVQPGGSLRLSCAGSGFSFGSQTMSWVRQAPGKGLEWVSSISYISGRTYYADSVKGRFTISRDNSKNTLYLQMNSLRAEDTAVYYCTKGHAFDVWGQGTMVTVSS VL: EIVLTQSPATLSVSPGERATLSCRASQSVWSNLAWYQQKPGQAPRLLIYGASTRATGIPARFSGSGSGTEFTLTISSLQSEDFAVYYCQQYQKWPLSFGGGTKVEIK : 0.257

// sample FX-Y17-Y8 (antibody, V domains shown) VH: EVQLLESGGGLVQPGGSLRLSCAGSGFSFGSQTMSWVRQAPGKGLEWVSSISVISRRTYYADSVKGRFTISRDNSKNTLYLQMNSLRAEDTAVYYCTKSHAFDVWGQGTMVTVSS VL: EIVLTQSPATLSVSPGERATLSCRASQSVWSNLAWYQQKPGQAPRLLIYGASTRATGIPARFSGSGSGTEFTLTISSLQSEDFAVYYCQQYHKWPLSFGGGTKVEIK , its EC50 was 0.237

Lookup result for FX-Y17-Y20 (antibody, V domains shown) VH: EVQLLESGGGLVQPGGSLRLSCAGSGFSFGSQTMSWVRQAPGKGLEWVSSISVISGRSYYADSVKGRFTISRDNSKNTLYLQMNSLRAEDTAVYYCTKSHAFDVWGQGTMVTVSS VL: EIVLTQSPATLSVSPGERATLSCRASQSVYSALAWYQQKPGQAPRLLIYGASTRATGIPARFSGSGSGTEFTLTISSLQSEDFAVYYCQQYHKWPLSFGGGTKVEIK ; measured EC50: 0.127

// for each binder below, give its EC50
1. FX-Y17-Y3 (antibody, V domains shown) VH: EVQLLESGGGLVQPGGSLRLSCAGSGFSFGSQTMSWVRQAPGKGLEWVSSISYISGRTYYADSVKGRFTISRDNSKNTLYLQMNSLRAEDTAVYYCTKSHAFDVWGQGTMVTVSS VL: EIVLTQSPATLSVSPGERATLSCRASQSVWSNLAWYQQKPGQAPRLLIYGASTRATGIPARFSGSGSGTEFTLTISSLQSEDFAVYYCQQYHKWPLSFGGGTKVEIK
2. FX-Y17-Y30 (antibody, V domains shown) VH: EVQLLESGGGLVQPGGSLRLSCAGSGFSFGSQTMSWVRQAPGKGLEWVSSISVISGRTYYADSVKGRFTISRDNSKNTLYLQMNSLRAEDTAVYYCAKSHAFDVWGQGTMVTVSS VL: EIVLTQSPATLSVSPGERATLSCRASQSVFSNLAWYQQKPGQAPRLLIYGASTRATGIPARFSGSGSGTEFTLTISSLQSEDFAVYYCQQYHWWPLSFGGGTKVEIK
3. FX-Y17-Y4 (antibody, V domains shown) VH: EVQLLESGGGLVQPGGSLRLSCAGSGFSFGSQTMSWVRQAPGKGLEWVSSSHVISGRTYYADSVKGRFTISRDNSKNTLYLQMNSLRAEDTAVYYCTKSHAFDVWGQGTMVTVSS VL: EIVLTQSPATLSVSPGERATLSCRASQSVYYNLAWYQQKPGQAPRLLIYGASTRATGIPARFSGSGSGTEFTLTISSLQSEDFAVYYCQQYHKWPLSFGGGTKVEIK

OUT:
1. 0.216
2. 0.083
3. 0.205
